experiment: chemical genetic growth profiling, strain panel (AID 1159580);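 also: tested at 20 µM; growth read once vehicle control cultures reached saturation at 30 °C; 1 = growth at the plate median or of vehicle wells; lower values mean less growth of the strain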; details: S. cerevisiae deletion strains, growth OD, locus YHR205W, strain SCH9, stronger effect = lower value
Hit rate of the full screen: of about 5,500 compounds, about 2,000 (36%) were called active. Roughly 18% stayed inconclusive and do not appear here. The list shows a part of the results.

molecule | normalized growth
CCOC(=O)/C(C#N)=C(\Nc1ccc(C(=O)OCC)cc1)SC | 0.872
Cc1nn(-c2cccc(Cl)c2)c2oc(=O)cc(C(F)(F)F)c12 | 0.615
NC(=S)N/N=C1/CCCc2ccccc21 | 0.993
CC(=O)c1ccc(Cl)c(N=Cc2cc(Cl)cc(Cl)c2O)c1 | 0.199
O=C1c2cccc3c(Sc4ccccc4)ccc(c23)C(=O)N1NCCO | 0.857
Cc1onc(-c2c(Cl)cccc2Cl)c1C(=O)O/N=C(/N)Cc1ccc(C(C)(C)C)cc1 | 0.993
CC(C)(C)c1cc(C(=O)Nc2ccc3c(c2)OCO3)n(Cc2ccc(F)cc2)n1 | 0.86
O=S(=O)(Nc1ccccc1Oc1ccccc1)c1ccc(-c2ccno2)s1 | 0.933
O=[N+]([O-])c1cccc(C2CC(c3ccccc3)=Nc3ccccc3S2)c1 (stereo not drawn) | 0.934
COC(=O)C1=C(Nc2ccccc2NS(=O)(=O)c2ccc(C(F)(F)F)cc2Cl)CSC1 | 0.972
O=C(NOC(=O)c1ccccc1)c1ccccc1 | -0.00347
C#CCSC1=NNC(c2ccccn2)S1 (stereo not drawn) | 0.123
O=C(CSC1=NNC(c2ccccn2)S1)Nc1ccccc1 (stereo not drawn) | 0.97
